system: HCT-15 colon; experiment: NCI-60 one-dose screen, 48 h (100 = growth as untreated, 0 = no growth, -100 = all killed); conditions: 10 µM unless noted
Compounds without any hit were thinned out: in the full panel of roughly 83,000, 20% have a hit.
Rule for this label: 1.0 means growth is less than 50%; 0.0 means growth is at least 50%.

compound	assigned.label
COc1ccc(-c2cn[nH]c2-c2cc(OC)c3c(c2)OCO3)cc1	1.0
O=C(Nc1cccc(Cl)c1)c1cc([N+](=O)[O-])ccc1O	0.0
O=C(Nc1ccc(I)cc1)c1cc([N+](=O)[O-])ccc1O	1.0
CCn1c(=O)c2c(=O)c3c4c(oc3oc2c2ccccc21)C(=O)c1ccccc1C4=O	0.0
O=C(Nc1ccc(OCc2nnc(-c3ccc(Cl)cc3)o2)c(F)c1)Nc1ccc(Cl)c(Cl)c1	1.0
COc1ccc(NC(=O)CSc2nc3ccccc3c(=O)n2-c2ccccc2C(F)(F)F)c(OC)c1OC	0.0
c1cncc(CNc2ccccc2-c2nnc(Nc3ccc4c(c3)OCCO4)o2)c1	1.0
COc1cc2c3c(c(=O)oc2cc1OS(=O)(=O)c1ccc(C(F)(F)F)cc1)CCCCC3	0.0
Nc1ccc(S(=O)(=O)c2ccc(Cl)cc2)cc1	0.0
O=C(O)c1ccc(-n2c(=O)c3ccccc3c3ccccc3c2=O)cc1	0.0
CC(=O)Nc1ccc(S(=O)(=O)N2C(=O)CCC2C(=O)Nc2ccc(Br)cc2)cc1 (stereo not given)	1.0
Clc1ccc2c(c1)NC1(CCSc3ccccc31)n1nccc1-2 (stereo not given)	0.0
CC(=O)Nc1nc(C(=O)N2N=C(C)/C(=C/c3cccs3)C2=O)cs1	0.0
O=C(CNc1c(Cl)cccc1Cl)Nc1ccc(-c2nc3ccccc3s2)cc1	1.0
CCC(C)NCC(=O)O (stereo not given)	0.0
COc1cc(C(=O)OCCCCCCCCCCC[P+](c2ccccc2)(c2ccccc2)c2ccccc2)ccc1O	1.0
O=S(=O)(NCCNc1cc(-c2cn(-c3ccccc3)nc2-c2ccccc2)ccn1)c1cccc2ccccc12	1.0
Cn1c(=O)c2c(nc3n2CCN(CCc2ccc(OCCN4CCOCC4)cc2)C3)n(C)c1=O	0.0
CS(=O)(=O)N(c1cc(-c2ccc3ncnc(Nc4cccc(Cl)c4)c3c2)cnc1Cl)S(C)(=O)=O	1.0
O=S(=O)(NCCNc1nccc(-c2c(-c3ccccc3)nc3sccn23)n1)c1ccc(O)cc1	1.0
CCCOC(=O)C1(O)CCCC1	0.0
C[C@]12CC[C@@H]3c4cc(O)c(O)cc4CC[C@H]3[C@@H]1CC[C@@H]2O	1.0
O=c1[nH]c(CN2CCN(c3ccccc3F)CC2)nc2sc3c(c12)CCC3	0.0
CCN1C(=O)N(CC)C2C1NN=c1s/c(=C\c3cccc(F)c3)c(=O)n12 (stereo not given)	1.0
COC1=CC(c2ccc[nH]2)=N/C1=C\c1[nH]c(C)c(C(=O)CCC(=O)Oc2ccc3c(c2)CCC2C3CC[C@]3(C)[C@@H](O)CC[C@@H]23)c1C (stereo not given in full)	1.0
Clc1nc2ccccc2nc1CI	0.0
COc1ccc2c(c1)NC(=O)CN2c1nc(NC2CC2)nc2ccccc12	1.0
CNC(=O)Cc1nc(-c2cccc(NS(=O)(=O)c3c(F)cccc3F)c2F)c(-c2ccnc(Nc3ccccc3)n2)s1	0.0
COc1ccc(NC(=O)c2cc3ccccc3nc2Nc2cc(OC)c(OC)c(OC)c2)cc1	1.0
O=C1OC(c2ccccc2)=N/C1=C\c1ccc([N+](=O)[O-])cc1	0.0
CC1Cc2c(N(C)C)ncnc2N(C)c2ccc(Cl)cc21 (stereo not given)	1.0
CC(C)[C@H](CO)Nc1nc(Nc2ccc(C(=O)NCCNS(=O)(=O)c3cccc4c(N(C)C)cccc34)c(Cl)c2)c2ncn(C(C)C)c2n1	0.0
Clc1ccc(/C=C/c2nc(N3CCOCC3)c3nc(Cl)c(Cl)cc3n2)cc1	0.0
CCCC(C(=O)OCC)C(C)OC(=O)OCC (stereo not given)	0.0
CCN1C(=O)/C(=c2\sc3n(c2=O)C2C(NN=3)N(CC)C(=S)N2CC)c2ccccc21 (stereo not given)	0.0
O=S(=O)(NCCNc1cc(-c2cn(-c3ccccc3)nc2-c2ccccc2)ccn1)c1ccc(F)cc1	0.0
O=P([O-])(O)OP(=O)([O-])O.[NH-][C@H]1CCCC[C@@H]1[NH-].[OH-].[OH-].[Pt+4]	0.0
O=C1NC(Cc2c[nH]c3ccccc23)C(=O)N1Cc1ccc(Cl)cc1 (stereo not given)	0.0
CNC(C)=O	0.0
COc1ccccc1CNCCCN1C(=O)c2ccc3c4c(ccc(c24)C1=O)C(=O)N(CCCNCCCCNCCCCN)C3=O	1.0
